target-under-test: T1, human C1s (human, UniProt P09871 16-688)
T1 construct: Analyte in the Biacore assays; also called hC1s; serum-derived human C1s (CompTech)
T1 sequence: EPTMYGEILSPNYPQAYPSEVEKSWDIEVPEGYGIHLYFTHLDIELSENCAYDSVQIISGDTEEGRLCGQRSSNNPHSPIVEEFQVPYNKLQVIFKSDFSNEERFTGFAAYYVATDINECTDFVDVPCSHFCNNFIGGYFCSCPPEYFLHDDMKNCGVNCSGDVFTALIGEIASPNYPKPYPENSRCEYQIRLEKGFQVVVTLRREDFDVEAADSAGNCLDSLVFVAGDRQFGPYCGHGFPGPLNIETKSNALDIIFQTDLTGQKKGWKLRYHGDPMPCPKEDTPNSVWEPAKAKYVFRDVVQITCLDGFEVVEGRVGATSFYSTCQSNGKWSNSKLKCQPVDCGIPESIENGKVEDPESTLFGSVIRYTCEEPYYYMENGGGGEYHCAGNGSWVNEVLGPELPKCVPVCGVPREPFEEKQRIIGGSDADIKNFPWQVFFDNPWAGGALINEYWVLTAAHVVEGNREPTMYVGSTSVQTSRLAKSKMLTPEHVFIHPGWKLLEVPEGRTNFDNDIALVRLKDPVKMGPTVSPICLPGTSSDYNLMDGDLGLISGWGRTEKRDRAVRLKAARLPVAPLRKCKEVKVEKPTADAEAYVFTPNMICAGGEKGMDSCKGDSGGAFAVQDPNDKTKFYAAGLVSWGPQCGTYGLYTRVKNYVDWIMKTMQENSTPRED
method-description: SPR (Biacore T200, 37C), Ab captured on protein A/G; pH 5.8, 3 uM Ca
readout-label: Kd (nM)
Give the value, in units of nM, as a plain number.

Worked examples, 2 binders total:
binder | quantity-unit | readout-value
C1_IPN92H0147-SG4GK/IPN93L0024-SK1 (antibody, human IgG4 S228P, kappa, name in Kabat numbering, V domains shown, Substitutions from IPN009VH2, Kabat numbering; also called IPN92H0147/IPN93L0024) VH: EVMLVESGGGLVKPGGSLRLSCAASGFTFSNYAMSWVRQAPGKGLEWVATISSGGSHDYYLDSVKGRFTISRDNSKDTLYLQMNSLRAEDTALYYCARLFTGHAMDYWGQGTLVTVSS VL: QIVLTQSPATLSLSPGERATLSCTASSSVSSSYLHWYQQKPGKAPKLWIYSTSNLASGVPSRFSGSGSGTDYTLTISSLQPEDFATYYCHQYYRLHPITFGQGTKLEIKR | nM | 3.23
C1_IPN92H0188-SG4GK/IPN93L0024-SK1 (antibody, human IgG4 S228P, kappa, name in Kabat numbering, V domains shown, Substitutions from IPN009VH2, Kabat numbering; also called IPN92H0188/IPN93L0024) VH: EVMLVESGGGLVKPGGSLRLSCAASGFTFSNYAMSWVRQAPGKGLEWVATISSGGSHTYYLDSVDGRFTISRDNSKDTLYLQMNSLRAEDTALYYCARLFTGHAMDYWGQGTLVTVSS VL: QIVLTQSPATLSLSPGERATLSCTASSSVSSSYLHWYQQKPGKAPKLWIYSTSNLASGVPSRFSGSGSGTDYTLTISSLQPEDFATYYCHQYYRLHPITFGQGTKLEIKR | nM | 4.21

// query Can you share its Kd? I mean this binder: C1_IPN92H0162-SG4GK/IPN93L0024-SK1 (antibody, human IgG4 S228P, kappa, name in Kabat numbering, V domains shown, Substitutions from IPN009VH2, Kabat numbering; also called IPN92H0162/IPN93L0024) VH: EVMLVESGGGLVKPGGSLRLSCAASGFTFSNYAMSWVRQAPGKGLEWVATISSGGSHTYKLDSVKGRFTISRDNSKDTLYLQMNSLRAEDTALYYCARLFTGHAMDYWGQGTLVTVSS VL: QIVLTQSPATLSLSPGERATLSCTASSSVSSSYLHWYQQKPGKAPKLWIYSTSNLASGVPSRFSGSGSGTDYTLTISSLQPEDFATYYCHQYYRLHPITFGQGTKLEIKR
// result 4.89
